System: OVCAR-4 ovarian
Experiment: NCI tumour cell line growth inhibition, 48 h
Measured log10 TGI values are reported for all entries that follow.
Measure name: log10 TGI (log10 of the value in µM)

>  <Compound>
CN(CC(=O)N(Cc1ccc(C2CCCCC2)cc1)c1ccc(C(=O)O)cc1)S(=O)(=O)c1c(F)c(F)c(F)c(F)c1F

>  <Measure name>
log10 TGI

>  <Quantitative result>
0.54

$$$$
>  <Compound>
C[C@]12CCC3[C@@H](CC[C@@H]4c5nonc5CC[C@]34C)C1CC[C@@H]2O (some centres undefined)

>  <Measure name>
log10 TGI

>  <Quantitative result>
1.92

$$$$
>  <Compound>
N#C[C@H](c1nc2ccccc2s1)c1nc2ccccc2nc1Cl

>  <Measure name>
log10 TGI

>  <Quantitative result>
1.53

$$$$
>  <Compound>
COc1cc(C2c3cc4c(cc3OC(N3CCNCC3)C2C)OCO4)cc(OC)c1OC (centres undefined)

>  <Measure name>
log10 TGI

>  <Quantitative result>
1.33

$$$$
>  <Compound>
CCN1CCN(C(=O)[C@]23CCC(C)(C)C[C@@H]2C2=CC[C@@H]4[C@@]5(C)C/C(=C/c6ccncc6)C(=O)C(C)(C)[C@@H]5CC[C@@]4(C)[C@]2(C)CC3)CC1

>  <Measure name>
log10 TGI

>  <Quantitative result>
0.51

$$$$
>  <Compound>
CCc1ccccc1NNc1cc(=O)[nH]c(=O)[nH]1

>  <Measure name>
log10 TGI

>  <Quantitative result>
1.58

$$$$
>  <Compound>
Cc1cc(=O)[nH]c(NN2C(Cl)C(=O)C2c2cccc(Cl)c2)n1 (centres undefined)

>  <Measure name>
log10 TGI

>  <Quantitative result>
1.99

$$$$
>  <Compound>
NS(=O)(=O)OCCCCCCCOS(N)(=O)=O

>  <Measure name>
log10 TGI

>  <Quantitative result>
3.05

$$$$
>  <Compound>
CC(=O)O[C@H]1CC[C@@]2(C)C(=CC[C@@H]3C2CC[C@]2(C)Nc4nc5ccccc5cc4CC32)C1 (some centres undefined)

>  <Measure name>
log10 TGI

>  <Quantitative result>
1.33

$$$$

----------
Tested on: OVCAR-3 ovarian
Assay: NCI tumour cell line growth inhibition, 48 h
Measured TGI values are reported for all entries that follow.

>  <Molecule>
N#C/C(=C/NC(=S)c1ccncc1)C(N)=O

>  <TGI>
> 100 µM

$$$$
>  <Molecule>
c1ccc2c3c([nH]c2c1)C(c1ccc(C2NCCc4c2[nH]c2ccccc42)cc1)NCC3 (stereo not given)

>  <TGI>
2.6 µM

$$$$
>  <Molecule>
COC(OC)[C@@H]1OC[C@@H](O)[C@@H]1n1cnc2c(N)ncnc21

>  <TGI>
> 100 µM

$$$$
>  <Molecule>
CSC1NC(c2ccc(Cl)cc2)=C(C#N)C(=O)N1C1OCC(OC(C)=O)C(OC(C)=O)C1OC(C)=O (stereo not given)

>  <TGI>
> 100 µM

$$$$
>  <Molecule>
CC(=O)N(O)c1ccc(-c2nc3ccccc3s2)cc1

>  <TGI>
> 100 µM

$$$$

----------
Measured GI50 values are reported for all entries that follow.
System: SK-MEL-2 melanoma
Assay: NCI tumour cell line growth inhibition, 48 h
Measure name: GI50

>  <Compound>
c1cc2c(cn1)Nc1ccncc1S2

>  <Measure name>
GI50

>  <Result>
35.2 µM

$$$$
>  <Compound>
CN1CCN(CCCOc2cccc3nc(Nc4ccc(Cl)c(C(F)(F)F)c4)ccc23)CC1

>  <Measure name>
GI50

>  <Result>
2.06 µM

$$$$
>  <Compound>
COc1cc2c(=O)[nH]c3cc([N+](=O)[O-])ccc3c2cc1[N+](=O)[O-]

>  <Measure name>
GI50

>  <Result>
22.9 µM

$$$$
>  <Compound>
CCn1c(-c2nonc2N)nc2cncc(C(=O)N3CC[C@H](N)C3)c21

>  <Measure name>
GI50

>  <Result>
> 25 µM

$$$$
>  <Compound>
CC(=O)c1c(C)[nH]c(-c2nc3ccc(N4CCN(C)CC4)cc3[nH]2)c1-c1ccccc1

>  <Measure name>
GI50

>  <Result>
4.02 µM

$$$$
